- Tested System: BRD4-BD2 (Homo sapiens (Human), UniProt O60885)
- Procedure Details: BRD4 AlphaScreen Assay (Example A2), BRD4-BD2
- Assay type: binding
- Condition Label: Assay A2, AlphaScreen, BRD4-BD2; read-out: BRD4 BD-2 enzyme IC50
pIC50: −log10 of the molar value. Counter-ions that a name gives are not always drawn.
Metric: pIC50

COC(=O)c1ncccc1C1COc2c(-c3c(C)noc3C)ccc3[nH]c(=O)n1c23 (racemic): > 7.00
Cc1noc(C)c1-c1ccc2[nH]c(=O)n3c2c1OC(CO)C3c1ccccn1 (single isomer, unassigned) [Example 62B]: > 7.00
Cc1noc(C)c1-c1cc(C#N)c2[nH]c(=O)n3c2c1OCC3c1ccccn1 (stereo not shown) [Example 269B]: 5.00 to 6.00

Summary: Cc1noc(C)c1-c1cc(Cl)c2[nH]c(=O)n3c2c1OCC3c1ccccn1 (single isomer, unassigned) [Example 266B] , BRD4-BD2 (Homo sapiens (Human), UniProt O60885), pIC50 = 6.00 to 7.00

Summary: Cc1noc(C)c1-c1ccc2c3c1CCC(c1ccccc1)n3c(=O)n2C (racemic) , BRD4-BD2 (Homo sapiens (Human), UniProt O60885), pIC50 = > 7.00

Summary: Cc1noc(C)c1-c1ccc2[nH]c(=O)n3c2c1CCC3c1ccccn1 (stereo not shown) [Example 123, trifluoroacetate] , BRD4-BD2 (Homo sapiens (Human), UniProt O60885), pIC50 = > 7.00

Summary: Cc1noc(C)c1-c1cc(CNS(C)(=O)=O)c2[nH]c(=O)n3c2c1OC[C@@H]3c1ccccn1 , BRD4-BD2 (Homo sapiens (Human), UniProt O60885), pIC50 = > 7.00
